// provenance: patent US10259810B2

In this section we review reported pEC50 values for a set of compounds.
biological target: ΔF508-CFTR (Homo sapiens, UniProt P13569, DEL508-508); construct: host or cells: CFBE41o-, doxycycline-inducible; assay: CFTR cell surface levels using HRP-tagged ΔF508-CFTR expressing CFBE cells, intrinsic corrector capacity; assay type: cell-based; settings: HRP-tagged ΔF508-CFTR expressing CFBE41o- cells; compound alone (intrinsic corrector capacity); 20 hours at 33° C.; read-out: EC50
Sequence (P13569 with tags, fused parts or gaps DEL508-508): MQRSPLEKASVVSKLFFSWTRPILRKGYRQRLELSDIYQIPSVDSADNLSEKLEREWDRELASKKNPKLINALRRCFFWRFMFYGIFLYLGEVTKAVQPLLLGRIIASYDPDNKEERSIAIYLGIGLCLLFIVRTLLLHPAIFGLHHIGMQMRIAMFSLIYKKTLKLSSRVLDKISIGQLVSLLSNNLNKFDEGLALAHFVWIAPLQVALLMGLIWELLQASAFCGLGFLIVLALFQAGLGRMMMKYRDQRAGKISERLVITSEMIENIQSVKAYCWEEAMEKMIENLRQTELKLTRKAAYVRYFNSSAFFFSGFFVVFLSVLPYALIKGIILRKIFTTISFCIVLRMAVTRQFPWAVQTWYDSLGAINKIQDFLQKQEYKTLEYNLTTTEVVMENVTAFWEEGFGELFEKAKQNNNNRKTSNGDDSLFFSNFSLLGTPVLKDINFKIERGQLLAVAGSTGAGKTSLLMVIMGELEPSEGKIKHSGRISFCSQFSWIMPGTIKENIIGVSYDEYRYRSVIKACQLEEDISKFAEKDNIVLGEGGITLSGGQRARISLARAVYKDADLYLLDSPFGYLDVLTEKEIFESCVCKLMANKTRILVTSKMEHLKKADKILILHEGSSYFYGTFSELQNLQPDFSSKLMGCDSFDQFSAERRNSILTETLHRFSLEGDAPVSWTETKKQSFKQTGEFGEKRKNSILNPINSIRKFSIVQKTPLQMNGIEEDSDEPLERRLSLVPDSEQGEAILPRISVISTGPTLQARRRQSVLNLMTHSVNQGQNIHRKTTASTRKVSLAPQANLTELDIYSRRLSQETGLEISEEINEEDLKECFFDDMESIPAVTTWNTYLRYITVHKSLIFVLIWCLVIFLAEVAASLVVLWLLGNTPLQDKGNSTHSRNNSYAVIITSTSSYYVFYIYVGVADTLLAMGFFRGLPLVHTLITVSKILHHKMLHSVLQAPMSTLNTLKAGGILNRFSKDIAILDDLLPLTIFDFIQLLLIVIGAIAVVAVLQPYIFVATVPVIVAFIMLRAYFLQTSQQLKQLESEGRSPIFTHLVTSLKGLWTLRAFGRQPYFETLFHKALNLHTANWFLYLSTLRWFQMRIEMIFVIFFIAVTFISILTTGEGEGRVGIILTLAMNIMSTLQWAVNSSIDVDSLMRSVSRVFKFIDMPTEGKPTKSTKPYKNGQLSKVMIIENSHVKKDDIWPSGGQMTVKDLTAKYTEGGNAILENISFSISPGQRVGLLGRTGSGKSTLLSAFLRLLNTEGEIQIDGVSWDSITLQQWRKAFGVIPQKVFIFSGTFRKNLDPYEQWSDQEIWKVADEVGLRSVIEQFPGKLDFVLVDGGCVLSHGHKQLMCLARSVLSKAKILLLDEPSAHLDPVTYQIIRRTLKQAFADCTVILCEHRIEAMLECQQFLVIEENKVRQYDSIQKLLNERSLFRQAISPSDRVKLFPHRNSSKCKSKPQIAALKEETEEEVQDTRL
Scale: negative log10 of molar concentration, which is what pEC50 denotes.

Request: Would you kindly share the measured pEC50 for COCC1CCN(c2cc(C(=O)NS(=O)(=O)C3CCN(C(=O)OCc4ccccc4)C3)nc3c2c(C2CCC2)nn3-c2ccccc2)CC1 (stereo not drawn) ?
Result: 6.89

Request: Would you kindly share the measured pEC50 for COCCS(=O)(=O)NC(=O)c1cc(N2CCC(COC)CC2)c2c(C(C)C)nn(-c3ccc(F)cc3)c2n1 ?
Result: 6.50

Request: Would you kindly share the measured pEC50 for CCS(=O)(=O)NC(=O)c1cc(-c2ccc(N3CCOCC3)cc2)c2c(C(C)C)nn(-c3ccc(F)c(F)c3)c2n1 ?
Result: 6.33

Request: Would you kindly share the measured pEC50 for CC(C)N(CCOc1cc(C(=O)NS(C)(=O)=O)nc2c1c(C1CCC1)nn2-c1ccccc1)C1COC1 ?
Result: 6.48

Request: Would you kindly share the measured pEC50 for CC(C)N1CCC2CN(c3cc(C(=O)NS(=O)(=O)N(C)C)nc4c3c(C3CCC3)nn4-c3ccc(F)cc3)CCC21 (stereo not drawn) ?
Result: 6.65

Request: Would you kindly share the measured pEC50 for CN(C)S(=O)(=O)NC(=O)c1cc(OCC2CCOCC2)c2c(C3CCC3)nn(-c3ccccc3)c2n1 ?
Result: 6.78

Request: Would you kindly share the measured pEC50 for CC1(COc2cc(C(=O)NS(C)(=O)=O)nc3c2c(C2CCC2)nn3-c2ccccc2)COC1 ?
Result: 6.40

Request: Would you kindly share the measured pEC50 for COC1CC(CN2CCC(c3cc(C(=O)NS(C)(=O)=O)nc4c3c(C3CCC3)nn4-c3ccc(F)cc3)CC2)C(OC)O1 (stereo not drawn) ?
Result: 5.93

Request: Would you kindly share the measured pEC50 for CCOC(=O)N1CCC(NS(=O)(=O)NC(=O)c2cc(N3CCC(N4CCOCC4)CC3)c3c(C4CCC4)nn(-c4ccccc4)c3n2)CC1 ?
Result: 7.02

Request: Would you kindly share the measured pEC50 for CS(=O)(=O)NC(=O)c1cc(N2CCC(N3CCC(C(F)(F)F)C3)CC2)c2c(C3CCC3)nn(-c3ccc(F)cc3)c2n1 (stereo not drawn) ?
Result: 6.93

Request: Would you kindly share the measured pEC50 for O=C(c1cc(N2CCC(CN3CCCC3)CC2)c2c(C3CCC3)nn(-c3ccccc3)c2n1)N1CCCS1(=O)=O ?
Result: 6.81

Request: Would you kindly share the measured pEC50 for COCC1CCN(c2cc(C(=O)NS(=O)(=O)c3c(C)noc3C)nc3c2c(C2CCC2)nn3-c2ccccc2)CC1 ?
Result: 6.74

Request: Would you kindly share the measured pEC50 for CN(C)S(=O)(=O)NC(=O)c1cc(N2CCC(N3CC4CC3CO4)CC2)c2c(C3CCC3)nn(-c3ccc(F)cc3)c2n1 (stereo not drawn) ?
Result: 6.28

Request: Would you kindly share the measured pEC50 for CN(C)S(=O)(=O)NC(=O)c1cc(N2CCC(N3CCC(F)(F)CC3)CC2)c2c(C3CCC3)nn(-c3ccc(F)cc3)c2n1 ?
Result: 6.82

Request: Would you kindly share the measured pEC50 for N#CC1CCN(S(=O)(=O)NC(=O)c2cc(N3CCC(N4CCOCC4)CC3)c3c(C4CCC4)nn(-c4ccc(F)cc4)c3n2)CC1 ?
Result: 7.03

Request: Would you kindly share the measured pEC50 for CNS(=O)(=O)NC(=O)c1cc(N2CCC(N3CCC(F)CC3)CC2)c2c(C3CCC3)nn(-c3ccc(F)cc3)c2n1 ?
Result: 6.94

Request: Would you kindly share the measured pEC50 for CN(C)S(=O)(=O)NC(=O)c1cc(C2CCC(N3CCOCC3)CC2)c2c(C3CCC3)nn(-c3ccccc3)c2n1 (stereo not drawn) ?
Result: 6.43

Request: Would you kindly share the measured pEC50 for COC(C)(C)C1CCN(c2cc(C(=O)NS(C)(=O)=O)nc3c2c(C(C)C)nn3-c2ccc(F)cc2)CC1 ?
Result: 6.38

Request: Would you kindly share the measured pEC50 for CN(C)S(=O)(=O)NC(=O)c1cc(CN2CCOCC2)c2c(C3CCC3)nn(-c3ccc(F)cc3)c2n1 ?
Result: 5.98

Request: Would you kindly share the measured pEC50 for COCC1CCN(S(=O)(=O)NC(=O)c2cc(N3CCC(N4CCOCC4)CC3)c3c(C4CCC4)nn(-c4ccc(F)cc4)c3n2)CC1 ?
Result: 6.91

Request: Would you kindly share the measured pEC50 for C[C@@H]1CN(c2cc(C(=O)NS(=O)(=O)N(C)C)nc3c2c(C2CCC2)nn3C2CCCCC2)CCN1Cc1ccccc1 ?
Result: 6.43

Request: Would you kindly share the measured pEC50 for C[C@H]1CN(c2cc(C(=O)NS(=O)(=O)N(C)C)nc3c2c(C2CCC2)nn3C2CCCCC2)CCN1Cc1ccccc1 ?
Result: 6.43

---

target: ΔF508-CFTR (Homo sapiens, UniProt P13569, DEL508-508); construct: host or cells: CFBE41o-, doxycycline-inducible; test: CFTR cell surface levels using HRP-tagged ΔF508-CFTR expressing CFBE cells, in the presence of a co-corrector; assay type: cell-based; conditions: HRP-tagged ΔF508-CFTR CFBE cells, in the presence of 3 μM co-corrector; read-out: EC50
observable: log10 of EC50 (log10 of the value in nM)
Lab note - EC50 converted to log10 from values in nM.

Some entries whose results are on file:
INSERT INTO assay_data (compound, reportedresult) VALUES
  ('COCCN(C)c1cc(C(=O)NS(C)(=O)=O)nc2c1c(C1CCC1)nn2-c1ccccc1 [Compound 206]', 2.95),
  ('CN(C)S(=O)(=O)NC(=O)c1cc(-c2ccc(CN3CCOCC3)cc2)c2c(OC3CCC3)nn(C3CCCCC3)c2n1 [Compound 481]', 2.19),
  ('CC(C)c1nn(-c2cc(F)cc(F)c2)c2nc(C(=O)NS(C)(=O)=O)cc(-c3ccc(N4CCC(C#N)CC4)cc3)c12 [Compound 130]', 2.73),
  ('CS(=O)(=O)NC(=O)c1cc(OCC2CCCO2)c2c(C3CCC3)nn(-c3ccccc3)c2n1 (stereo not shown) [Compound 283]', 2.42),
  ('CCS(=O)(=O)NC(=O)c1cc(-c2ccc(N(C)C3CCOCC3)nc2)c2c(C(C)C)nn(-c3cccc(F)c3)c2n1 [Compound 224]', 2.68);

Request: Would you kindly share the measured log10 of EC50 for COCCN(C)C1CCN(c2cc(C(=O)NS(=O)(=O)N(C)C)nc3c2c(C2CCC2)nn3-c2ccc(F)cc2)CC1 [Compound 591] ?
Result: 3.20

Request: Would you kindly share the measured log10 of EC50 for CNS(=O)(=O)NC(=O)c1cc(N2CCC(COC)CC2)c2c(C3CCC3)nn(-c3ccc(F)cc3)c2n1 [Compound 669] ?
Result: 2.39

---

In this section we review reported % Activation values for a set of compounds.
biological target: ΔF508-CFTR (Homo sapiens, UniProt P13569, DEL508-508); construct: host or cells: CFBE41o-, doxycycline-inducible; experiment: CFTR cell surface levels using HRP-tagged ΔF508-CFTR expressing CFBE cells, intrinsic corrector capacity; type: cell-based; set-up: concentration or dose not given beside the values; settings: HRP-tagged ΔF508-CFTR expressing CFBE41o- cells; compound alone (intrinsic corrector capacity); 20 hours at 33° C.
API: value field is a number in %; no unit string.

Some entries whose results are on file:
INSERT INTO results (compound, testtarget, observable, readingunit, reportedresult) VALUES
  ('CNS(=O)(=O)NC(=O)c1cc(N2CCC(N3CCC(F)CC3)CC2)c2c(C3CCC3)nn(-c3ccc(F)cc3)c2n1', 'ΔF508-CFTR (Homo sapiens, UniProt P13569, DEL508-508)', '% Activation', '%', 385.4),
  ('CC(C)c1nn(C2CCCCC2)c2nc(C(=O)NS(C)(=O)=O)cc(-c3ccc(N(C)C4CCOC4)nc3)c12 (centres unmarked)', 'ΔF508-CFTR (Homo sapiens, UniProt P13569, DEL508-508)', '% Activation', '%', 184.53),
  ('C[C@H]1CN(c2cc(C(=O)NS(=O)(=O)N(C)C)nc3c2c(C2CCC2)nn3C2CCCCC2)CCN1Cc1ccccc1', 'ΔF508-CFTR (Homo sapiens, UniProt P13569, DEL508-508)', '% Activation', '%', 33.38),
  ('CCS(=O)(=O)NC(=O)c1cc(N2CCCCC2)c2c(C)nn(-c3ccccc3)c2n1', 'ΔF508-CFTR (Homo sapiens, UniProt P13569, DEL508-508)', '% Activation', '%', 140.85),
  ('COCCS(=O)(=O)NC(=O)c1cc(N2CCC(COC)CC2)c2c(C(C)C)nn(C3CCCCC3)c2n1', 'ΔF508-CFTR (Homo sapiens, UniProt P13569, DEL508-508)', '% Activation', '%', 273.3),
  ('CC1(S(=O)(=O)NC(=O)c2cc(N3CCC(CN4CCCC4)CC3)c3c(C4CCC4)nn(-c4ccccc4)c3n2)CC1', 'ΔF508-CFTR (Homo sapiens, UniProt P13569, DEL508-508)', '% Activation', '%', 212.3),
  ('CC(C)c1nn(-c2ccc(F)cc2F)c2nc(C(=O)NS(C)(=O)=O)cc(-c3ccc(N4CCC(C#N)CC4)cc3)c12', 'ΔF508-CFTR (Homo sapiens, UniProt P13569, DEL508-508)', '% Activation', '%', 233.07),
  ('CCS(=O)(=O)NC(=O)c1cc(N2CCC(OC)CC2)c2c(C(C)C)nn(-c3cccc(C)c3)c2n1', 'ΔF508-CFTR (Homo sapiens, UniProt P13569, DEL508-508)', '% Activation', '%', 289.93),
  ('COCC1CCN(c2cc(C(=O)NS(=O)(=O)N3CCC(N4CCCC4)CC3)nc3c2c(C2CCC2)nn3-c2ccccc2)CC1', 'ΔF508-CFTR (Homo sapiens, UniProt P13569, DEL508-508)', '% Activation', '%', 192.8),
  ('CC(C)Oc1nn(C2CCCCC2)c2nc(C(=O)NS(C)(=O)=O)cc(-c3ccc(CN4CC(N(C)C)C4)cc3)c12', 'ΔF508-CFTR (Homo sapiens, UniProt P13569, DEL508-508)', '% Activation', '%', 180.46);

Request: Would you kindly share the measured % Activation for COC1CCN(c2cc(C(=O)NS(C)(=O)=O)nc3c2c(C(C)C)nn3-c2ccnc(N3CCCC3)c2)CC1 ?
Result: 214.93

Request: Would you kindly share the measured % Activation for O=C(NS(=O)(=O)C1CCOC1)c1cc(N2CCC(N3CCCCC3)CC2)c2c(C3CCC3)nn(-c3ccc(F)cc3)c2n1 (centres unmarked) ?
Result: 184.1

Request: Would you kindly share the measured % Activation for CC(C)c1nn(-c2ccc(F)cc2)c2nc(C(=O)NS(C)(=O)=O)cc(N3CC4(CCCOC4)C3)c12 ?
Result: 89.165

Request: Would you kindly share the measured % Activation for N#CC1CCN(S(=O)(=O)NC(=O)c2cc(N3CCC(N4CCOCC4)CC3)c3c(C4CCC4)nn(-c4ccc(F)cc4)c3n2)CC1 ?
Result: 187.5
